Attribution: patent US8343539B2

tested on: HUVECs; assay: HUVEC spreading on substrates (cell area); assay type: cell-based, human; conditions: 1-24 hours
Where no end group is shown, it is not given here. (C16)2‑Glu‑C2 = lipid tail; (C16)2 = not defined here

[
  {
    "substance": "(C16)2-Glu-C2-KSSPHSRNSGSGSGSGSGRGDSP ({(C16)2-Glu-C2}-KSSPHSRNSGSGSGSGSGRGDSP; not fully specified; reading uncertain) [PR_b]",
    "HUVEC spreading (cell area)": "mostly spread"
  },
  {
    "substance": "(C16)2-Glu-C2-PHSRNSGSGSGSGRGDSP ({(C16)2‑Glu‑C2}-PHSRNSGSGSGSGRGDSP) [PR_a]",
    "HUVEC spreading (cell area)": "mostly spread"
  }
]
